Documented phosphorylation enrichment across a set of sequences
Biological target: EPHB2 (UniProt P29323)
Sequence (P29323 whole entry, looked up): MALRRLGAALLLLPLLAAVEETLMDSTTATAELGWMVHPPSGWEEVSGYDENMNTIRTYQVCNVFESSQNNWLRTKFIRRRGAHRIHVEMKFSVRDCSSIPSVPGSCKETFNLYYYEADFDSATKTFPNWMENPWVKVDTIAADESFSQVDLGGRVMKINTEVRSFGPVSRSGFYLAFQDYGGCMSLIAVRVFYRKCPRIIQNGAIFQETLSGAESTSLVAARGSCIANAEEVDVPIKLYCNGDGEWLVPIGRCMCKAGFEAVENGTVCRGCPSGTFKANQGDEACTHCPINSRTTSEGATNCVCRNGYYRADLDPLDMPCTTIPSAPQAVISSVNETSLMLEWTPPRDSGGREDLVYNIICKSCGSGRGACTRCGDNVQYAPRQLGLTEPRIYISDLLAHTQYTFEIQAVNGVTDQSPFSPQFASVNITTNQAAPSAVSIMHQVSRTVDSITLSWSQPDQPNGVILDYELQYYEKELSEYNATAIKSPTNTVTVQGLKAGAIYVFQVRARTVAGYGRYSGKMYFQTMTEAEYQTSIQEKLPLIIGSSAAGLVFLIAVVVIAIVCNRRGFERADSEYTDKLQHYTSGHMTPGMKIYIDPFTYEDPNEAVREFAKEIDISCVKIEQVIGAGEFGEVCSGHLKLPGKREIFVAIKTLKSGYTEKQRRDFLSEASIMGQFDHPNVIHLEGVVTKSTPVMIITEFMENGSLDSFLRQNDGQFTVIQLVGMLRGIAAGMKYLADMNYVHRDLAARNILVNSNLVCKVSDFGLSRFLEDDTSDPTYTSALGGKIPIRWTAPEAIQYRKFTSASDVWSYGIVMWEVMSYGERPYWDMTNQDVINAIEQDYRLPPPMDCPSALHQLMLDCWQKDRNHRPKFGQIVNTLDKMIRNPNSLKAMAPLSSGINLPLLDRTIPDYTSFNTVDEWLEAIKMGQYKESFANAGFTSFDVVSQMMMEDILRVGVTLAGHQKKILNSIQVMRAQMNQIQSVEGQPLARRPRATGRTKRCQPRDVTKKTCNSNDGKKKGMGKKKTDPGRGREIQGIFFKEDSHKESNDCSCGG
Assay: phosphorylation enrichment, bacterial display (enrichment ratio); higher = better substrate or ligand; peptides without Tyr show the background
Quantity Kind: phosphorylation enrichment

[[record]]
residues = "VVVTKYCKEEL [ATP7B_Y1078_A1074V]"
reported_result = 0.658

[[record]]
residues = "SGVSYYINLCQ [IGF2R_Y2025_N2020S]"
reported_result = 0.635

[[record]]
residues = "NPPGMYPVTGP [LPP_Y346]"
reported_result = 0.325

[[record]]
residues = "QRTMKYTTATG [MCCC1_Y41]"
reported_result = 0.7

[[record]]
residues = "NDPMEYAKQHG [ASS1_Y163_L160P]"
reported_result = 0.485

[[record]]
residues = "ILTYKYLQKPM [KIT_Y547]"
reported_result = 0.591

[[record]]
residues = "LAEMNYVHRDL [EPHB1_Y740]"
reported_result = 0.632

[[record]]
residues = "FISVGYVDDTL [HLA-B_Y51_Q56L]"
reported_result = 0.736

[[record]]
residues = "GSERDYTFDEL [EIF2S2_Y174_E177D_YF]"
reported_result = 0.564

[[record]]
residues = "RREWFYEVIIA [BACE1_Y260_V265A_YF]"
reported_result = 0.391

[[record]]
residues = "RGKEPYTKKAL [TTC21B_Y160]"
reported_result = 0.698

[[record]]
residues = "MPVDGYISGLL [PAK6_Y81]"
reported_result = 0.59

[[record]]
residues = "CTTIHHNYMCN [TP53_Y234_Y234H]"
reported_result = 0.531

[[record]]
residues = "NGPDVYVLPVT [AATK_Y93_L97V]"
reported_result = 0.644


* * *

Target: FGFR1 (UniProt P11362)
Sequence (P11362 whole entry, looked up): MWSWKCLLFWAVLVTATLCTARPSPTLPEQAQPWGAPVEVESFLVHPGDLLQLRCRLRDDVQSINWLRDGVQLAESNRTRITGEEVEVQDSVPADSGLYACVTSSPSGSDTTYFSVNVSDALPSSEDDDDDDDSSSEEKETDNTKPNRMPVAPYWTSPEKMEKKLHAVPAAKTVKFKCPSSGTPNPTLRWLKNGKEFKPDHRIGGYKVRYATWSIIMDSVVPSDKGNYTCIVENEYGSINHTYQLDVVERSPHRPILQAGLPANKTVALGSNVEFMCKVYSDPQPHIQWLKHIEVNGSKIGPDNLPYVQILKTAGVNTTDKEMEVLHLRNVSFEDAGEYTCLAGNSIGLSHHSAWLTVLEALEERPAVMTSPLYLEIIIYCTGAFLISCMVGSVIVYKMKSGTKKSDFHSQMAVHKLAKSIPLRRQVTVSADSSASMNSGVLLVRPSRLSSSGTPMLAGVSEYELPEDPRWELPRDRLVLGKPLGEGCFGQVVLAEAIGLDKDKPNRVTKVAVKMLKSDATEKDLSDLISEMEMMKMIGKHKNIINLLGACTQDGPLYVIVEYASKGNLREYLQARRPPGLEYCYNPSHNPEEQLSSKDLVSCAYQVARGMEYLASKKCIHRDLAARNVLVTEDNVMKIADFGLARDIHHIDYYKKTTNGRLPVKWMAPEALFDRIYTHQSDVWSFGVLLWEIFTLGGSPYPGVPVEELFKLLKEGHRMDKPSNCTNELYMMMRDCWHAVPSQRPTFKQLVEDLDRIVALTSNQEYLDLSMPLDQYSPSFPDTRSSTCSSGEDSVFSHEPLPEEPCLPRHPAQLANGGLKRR
Test: phosphorylation enrichment, bacterial display (enrichment ratio); higher = better substrate or ligand; peptides without Tyr show the background
Mark FALSE for phosphorylation enrichment values under 0.7, and TRUE for everything at or above.

[[record]]
residues = "ANVKWYRNGRE"
answer_label = "FALSE"

[[record]]
residues = "NAMRRYIEEFQ [MNS1_Y244]"
answer_label = "FALSE"

[[record]]
residues = "RQQEVYLLYKQ [RARRES1_Y159_D158V]"
answer_label = "FALSE"

[[record]]
residues = "EPNSRYTCKLE [USH2A_Y3745_Y3747C]"
answer_label = "FALSE"

[[record]]
residues = "ASTHIYQIMNH [ITK_Y588_V587I]"
answer_label = "TRUE"

[[record]]
residues = "SILAVYSKDIY [PANK2_Y400_N404I]"
answer_label = "FALSE"

[[record]]
residues = "LQEQNYPAVDS [FAM114A1_Y115_L116P]"
answer_label = "TRUE"

[[record]]
residues = "SILTVYSKDNF [PANK2_Y400_A398T_YF]"
answer_label = "FALSE"

[[record]]
residues = "IGMLIYFARKA [VCAM1_Y718_I716L]"
answer_label = "FALSE"

[[record]]
residues = "ANAYIYDVQLP [L1CAM_Y420_V421D]"
answer_label = "FALSE"

[[record]]
residues = "NVTRKYTRQIL [MAP3K2_Y463]"
answer_label = "FALSE"

[[record]]
residues = "TVQVAYYTMMM [SPATA17_Y83]"
answer_label = "TRUE"

[[record]]
residues = "RKQQLYIAMEE [CCDC39_Y593_T594I]"
answer_label = "TRUE"

[[record]]
residues = "FSGIFYKPESL [L2HGDH_Y103_H98Y_YF]"
answer_label = "FALSE"

[[record]]
residues = "FGCTFYNQAIM [MCCC2_Y196_R193C]"
answer_label = "FALSE"

[[record]]
residues = "DLVSEYQQFQD [TUBB3_Y422_YF]"
answer_label = "FALSE"

[[record]]
residues = "HEEDNYIELIP [NWD2_Y566]"
answer_label = "TRUE"

[[record]]
residues = "KANEFYPVVII [ADAMTS18_Y765_L769I_YF]"
answer_label = "TRUE"

[[record]]
residues = "VSLEAYCKHKY [RXRA_Y403_A398V]"
answer_label = "FALSE"

[[record]]
residues = "PEYVVYKPQME [CCRL2_Y170_F167Y]"
answer_label = "TRUE"

[[record]]
residues = "VISNAYVDLSP [HSD17B4_Y602_A606S]"
answer_label = "TRUE"

[[record]]
residues = "HTKKNYGNSSV [HDX_Y197_A193T]"
answer_label = "FALSE"

[[record]]
residues = "RELGEYGLQAF [ALDH2_Y497_YF]"
answer_label = "FALSE"

[[record]]
residues = "SAPDSYIGIGN [SLC38A4_Y27]"
answer_label = "FALSE"

[[record]]
residues = "AIYEGYALPHA [ACTC1_Y171_P166A]"
answer_label = "TRUE"

[[record]]
residues = "EDAHHYLCKEV [JAK2_Y382_A377E]"
answer_label = "FALSE"

[[record]]
residues = "LAETSYVTVLE [MAGEA1_Y276_K278T]"
answer_label = "TRUE"

[[record]]
residues = "MKGDFYCFLAE [YWHAG_Y131_R132C_YF]"
answer_label = "TRUE"

[[record]]
residues = "YRAVKYLQMVG [AVPR2_Y117_C112Y]"
answer_label = "FALSE"

[[record]]
residues = "LEKISYVFMKR [SSX7_Y48_YF]"
answer_label = "TRUE"

[[record]]
residues = "PPLMLYNPTTF [EGFR_Y270_YF]"
answer_label = "TRUE"

[[record]]
residues = "KKHIPHREHKS [CSNK1G2_Y206_Y206H]"
answer_label = "TRUE"

[[record]]
residues = "RLSPEYKQNEI [GJB1_Y243]"
answer_label = "FALSE"

[[record]]
residues = "NHRNQYQALKP [CLSPN_Y887]"
answer_label = "FALSE"

[[record]]
residues = "SRFQFYFQQKG [CHKB_Y381]"
answer_label = "FALSE"

[[record]]
residues = "ILDEAYVMASM [EGFR_Y764_V769M]"
answer_label = "FALSE"

[[record]]
residues = "IDQDKYAVHFI [FLNA_Y2388_R2391H]"
answer_label = "FALSE"

[[record]]
residues = "YPSLPYSPVSS [CAMKK2_Y128_C123Y]"
answer_label = "TRUE"

[[record]]
residues = "DVLVEYQEEGR [GNS_Y416_G418E]"
answer_label = "FALSE"

[[record]]
residues = "KPGVNYFFRVS"
answer_label = "FALSE"

[[record]]
residues = "ECKFLYSRKEG [PTPN11_Y263_L261F]"
answer_label = "FALSE"

[[record]]
residues = "TEDAEYDVQSK [PTCHD3_Y335_P333A]"
answer_label = "FALSE"

[[record]]
residues = "AGADGYGFLAP [FOXL2_Y186_YF]"
answer_label = "FALSE"

[[record]]
residues = "RPPFTYATLIH [FOXP3_Y342_R347H]"
answer_label = "FALSE"

[[record]]
residues = "EFLKNYFTDKA [DSG2_Y775_R773K]"
answer_label = "FALSE"

[[record]]
residues = "IGLHAYGDQFR [IDH1_Y135_R132L_YF]"
answer_label = "FALSE"

[[record]]
residues = "PKSWNYELPAT [PROM1_Y34_A31S]"
answer_label = "TRUE"

[[record]]
residues = "GLDGSYLLTDS [SH2D1A_Y29_R32T]"
answer_label = "FALSE"

[[record]]
residues = "QNTGDYYDLYG [PTPN11_Y62]"
answer_label = "TRUE"

[[record]]
residues = "SAPPSHEETVA [LITAF_Y23_Y23H]"
answer_label = "FALSE"

[[record]]
residues = "VATRWYRSPEL [CDKL5_Y177]"
answer_label = "FALSE"

[[record]]
residues = "FRSSLYSLMET [MYO5C_Y633_L634S]"
answer_label = "TRUE"

[[record]]
residues = "RQIQSYTCEID [DES_Y331_H326R]"
answer_label = "FALSE"

[[record]]
residues = "GFKVRYATGSI [FGFR1_Y210_W213G_YF]"
answer_label = "FALSE"

[[record]]
residues = "AKLKDYFIFNK [CCDC42_Y149_YF]"
answer_label = "TRUE"

[[record]]
residues = "TSNQEYLFLSM [FGFR1_Y766_D768Y_YF]"
answer_label = "TRUE"


* * *

Biological target: c-Src SH2;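 also: peptide library displayed on the E. coli surface as eCPX fusions, selected cells deep-sequenced, score is each peptide's frequency after selection divided by its frequency in the input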
Assay: SH2 binding enrichment of the phosphorylated peptide, bacterial display (enrichment ratio); higher = better substrate or ligand; peptides without Tyr show the background
Documented SH2 binding enrichment across a set of sequences
Quantity Kind: SH2 binding enrichment

[[record]]
residues = "PYRSIYFSSPK [MPG_Y75]"
reported_result = 0.594

[[record]]
residues = "VMSGPYELKAL [IL1B_Y140]"
reported_result = 0.533

[[record]]
residues = "YGSSSYRGAGG [RPA2_Y14_G15R]"
reported_result = 0.49

[[record]]
residues = "NAGDFYDLFGG [PTPN11_Y63_T59A_YF]"
reported_result = 0.497

[[record]]
residues = "IRTIDYRYTVW [IDS_Y497]"
reported_result = 0.985

[[record]]
residues = "TLSGIYQYSIA [FOXL2_Y81_I84S]"
reported_result = 1.93

[[record]]
residues = "EQSGSYIWVLA [DLG1_Y895_P899L]"
reported_result = 0.383

[[record]]
residues = "KDQGIYEDYVE [MYL6_Y86_T85I]"
reported_result = 0.535

[[record]]
residues = "YCRHNYGAVES [HLA-DRB1_Y112_V114A]"
reported_result = 1.34

[[record]]
residues = "KIVQDYLEKFF [MMP8_Y36_T32I_YF]"
reported_result = 0.691

[[record]]
residues = "NFFEFYVDDPL [GCHFR_Y48_P53L_YF]"
reported_result = 0.485

[[record]]
residues = "HEEDNYIELIP [NWD2_Y566]"
reported_result = 0.458

[[record]]
residues = "SKDSAYVTWEP"
reported_result = 0.654

[[record]]
residues = "KNSSIYVVANI [VNN1_Y134_N131S]"
reported_result = 0.646


The origin of these recorded values is the supplement of paper PMC10065799.
